Test system: UO-31 renal
Assay: NCI tumour cell line growth inhibition, 48 h
property: GI50

Below, each entry is followed by its recorded GI50 result.
smiles_repr | GI50
COc1ccc(/C=C2\SC(=Nc3ccccc3)NC2=O)cc1 | 6970 nM
COc1ccc(NC(=O)c2sc3nc(C)c(C(=O)/C=C/c4cccc(OC)c4)cc3c2N)cc1 | 842 nM
Cc1ccc2c(c1)C(=O)c1c-2c(OCCCN(C)C)nc2ccccc12 | 1130 nM
COc1cc(C(=O)O[C@H](C(=O)NCCN(C)CCNC(=O)[C@@H](OC(=O)c2cc(OC)cc3c(C)cccc23)[C@]2(C)CO2)[C@]2(C)CO2)c2cccc(C)c2c1 | 417 nM

Could you now consider this next molecule?
Indicate the recorded GI50 value for this molecule: CCCCCCCC(=O)SCC/C=C/[C@@H]1CC(=O)NCc2nc(cs2)C2=N[C@@](C)(CS2)C(=O)N[C@@H](C(C)C)C(=O)N1
741 nM

====

Entries annotated with measured TGI
Test system: NCI-H23 lung
Assay: NCI tumour cell line growth inhibition, 48 h
Numbers only; they are read as µM.

Below, each entry is followed by its recorded TGI result.
compound | target_desc | readout_units | TGI
O=C(c1ccccc1)c1c(C(F)(F)F)n([O-])c2cc(C(F)(F)F)ccc2[n+]1=O | NCI-H23 lung | µM | 4.9
CN(CCCNC(=O)c1nn(C)c2c1Cc1ccccc1-2)CCCNC(=O)c1nn(C)c2c1Cc1ccccc1-2 | NCI-H23 lung | µM | 47.3
O=C(c1ccco1)c1c(C(F)(F)F)n([O-])c2cc(C(F)(F)F)ccc2[n+]1=O | NCI-H23 lung | µM | 2.62
COC(=O)CNC(=O)CCC(C)[C@H]1CCC2C3C(C[C@H](OC(C)=O)[C@@]21C)[C@@]1(C)CCC2(C[C@H]1C[C@H]3OC(C)=O)OOC1(CC[C@]3(C)C4C[C@H](OC(C)=O)[C@@]5(C)C(CC[C@@H]5C(C)CCC(=O)NCC(=O)OC)C4[C@H](OC(C)=O)C[C@@H]3C1)OO2 (stereo not given in full) | NCI-H23 lung | µM | 3.66
CC1SC2(CCCCC2)N(NC(=O)CSc2nc3ccc(Cl)cc3c(=O)n2-c2ccccc2)C1=O (stereo not given) | NCI-H23 lung | µM | 57.4

Indicate the recorded TGI value for this compound: O=C(C#Cc1ccccc1)C1=Cc2ccccc2OC1
5.47

Indicate the recorded TGI value for this compound: N#C/C(=N\Nc1ccccc1)C(=O)Nc1cc(-c2ccccc2)nn1-c1ccccc1
60.5

====

Entries annotated with measured TGI
Tested on: 786-0 renal
Assay: NCI tumour cell line growth inhibition, 48 h

molecule | observed_value
O=C(OC1CN2CCC1CC2)N(c1ccccc1)c1ccccc1 (stereo unspecified) | > 100 µM
CC(=O)OC12c3ccccc3-c3ccccc3C1C(C(=O)O)C2C(=O)O (stereo unspecified) | > 10 µM
Cc1c(Cl)cccc1N=NC(=O)NNc1cccc(Cl)c1C | 37.7 µM
O=C(CI)Nc1ccc(O)c2ccccc12 | 3.27 µM
COc1cccc2cc(C(=O)Nc3ccccc3)c(=N)oc12 | > 100 µM

Could you now consider this next molecule?
Specify TGI for Cc1ccc(S(=O)(=O)C2=c3nc4ccccc4cc3=C3C(=O)c4ccccc4C(=O)C32)cc1 (stereo unspecified) , system 786-0 renal.
> 100 µM

====

Test system: T-47D breast
Experiment: NCI tumour cell line growth inhibition, 48 h
property: GI50

Below, each entry is followed by its recorded GI50 result.
compound | GI50
CCCCCCCC(=O)SCC/C=C/[C@@H]1CC(=O)NCc2nc(cs2)C2=N[C@@](C)(CS2)C(=O)N[C@@H](C(C)C)C(=O)N1 | < 12.4 nM
O=C(c1ccco1)c1c(C(F)(F)F)n([O-])c2cc(C(F)(F)F)ccc2[n+]1=O | 355 nM
C[C@]12CC[C@H]3[C@@H](CC4SC(N)=NC45C/C(=N/NC(N)=O)CC[C@]35C)[C@@H]1CCC2=O (some centres undefined) | 1860 nM

Indicate the recorded GI50 value for this compound: COC1=CC(c2ccc[nH]2)=N/C1=C\c1[nH]c(C)c(CC(=O)OCc2ccccc2)c1C
251 nM

Indicate the recorded GI50 value for this compound: COC(=O)CCNc1c2ccccc2nc2cccc([N+](=O)[O-])c12
28.3 nM

Indicate the recorded GI50 value for this compound: Cc1nc2ccccn2c1NC(=O)NNC(=S)Nc1ccc(F)cc1
> 100000 nM

Indicate the recorded GI50 value for this compound: COC(=O)c1c2c(c(C)[n+]([O-])c1C)C(=O)C=C(NCc1cccc(Cl)c1)C2=O
187 nM

Indicate the recorded GI50 value for this compound: O=C(Nc1ccc(F)cc1)Nc1ccc(Br)c(C(F)(F)F)c1
1620 nM

Indicate the recorded GI50 value for this compound: NC(N)=NC(N)=NCCCc1ccco1
71700 nM

====

Entries annotated with measured GI50
System: T-47D breast
Assay: NCI tumour cell line growth inhibition, 48 h

smiles_repr | GI50
COc1ccc(NC(=O)c2sc3nc(C)c(C(=O)/C=C/c4cccc(OC)c4)cc3c2N)cc1 | 1460 nM
C=C1C(=O)O[C@H]2[C@H]1CC/C(COC(=O)OC/C1=C/CC[C@@]3(C)O[C@H]3[C@H]3OC(=O)[C@@H](CN(C)C)[C@@H]3CC1)=C\CC[C@@]1(C)O[C@@H]21 | 714 nM

Could you now consider this next compound?
Specify GI50 for COc1ccc(/C(C#N)=C/c2cc(OC)c(OC)c(OC)c2)cc1 , system T-47D breast.
17000 nM

====

Tested on: MCF7 breast
Assay: NCI tumour cell line growth inhibition, 48 h
Entries annotated with measured TGI
Numbers only; they are read as µM.

compound | readout_units | TGI
COC1=C(C)C(=O)C2=C(C1=O)C1C3CC4=C(C(=O)C(OC)=C(C)C4=O)C(CNC(=O)C(C)O)N3C(C#N)C(C2)N1C (stereo not given) | µM | 2.25

Could you now consider this next compound?
Indicate the recorded TGI value for this compound: CCCCCCCC/C=C1\CCC(CN2CCOCC2)C1=O (stereo not given)
6.18

====

Test system: SF-295 CNS
Assay: NCI tumour cell line growth inhibition, 48 h; in the data active = GI50 below about 0.43 µM; inactive = the rest
Your reply should match one of these outcome classes. active, inactive

Sample answers from the record:
compound | class_name
CCCCCC[C@@H](C)NC(=O)c1ccc(Nc2nc3ccccc3c3occc23)cc1 | inactive
CC([C@H]1CC=C2C3CCC4=C[C@@H](N(C)C)CC[C@]4(C)C3CC[C@@]21C)N(C)C (some centres not stated) | inactive
ClCc1ccccc1Cn1cnc2c(Cl)ncnc21 | inactive
Cc1c(N)nc(C(CC(N)=O)NCC(N)C(N)=O)nc1C(=O)NC(C(=O)NC(C)C(O)C(C)C(=O)NC(C(=O)NCCc1nc(-c2nc(C(=O)NCCCNC(C)c3ccccc3)cs2)cs1)C(C)O)C(OC1OC(CO)C(O)C(O)C1OC1OC(CO)C(O)C(OC(N)=O)C1O)c1cnc[nH]1 (configuration not stated) | active
O=C1C(=O)c2ccccc2C(O)=C1CCCc1ccc(C2CCCCC2)cc1 | inactive
CC(=O)O[C@H]1C(=O)[C@@]2(C)[C@H]([C@H](OC(=O)c3ccccc3)[C@]3(O)C[C@H](OC(=O)[C@H](OC(=O)OC[C@H]4COC(C)(C)O4)[C@@H](NC(=O)c4ccccc4)c4ccccc4)C(C)=C1C3(C)C)[C@]1(OC(C)=O)CO[C@@H]1C[C@@H]2O | active

Continue with the next compound.
Answer briefly: the call reported for O=C(/C=C1\C(=O)N(Cc2ccccc2)c2ccccc21)c1ccc(OCCN2CCCCC2)cc1 in this assay.
inactive

====

Test system: OVCAR-5 ovarian
Assay: NCI tumour cell line growth inhibition, 48 h
Entries annotated with measured GI50

Indicate the recorded GI50 value for this compound: CO[C@H]1C[C@](C)(O)Cc2cc3c(c(O)c21)C(=O)c1c(O)cc2c(c1C3=O)O[C@@H]1O[C@@]2(C)[C@H](O)[C@@H](N(C)C)[C@@H]1O
1.37 µM

Indicate the recorded GI50 value for this compound: C[C@]12CC[C@H]3[C@@H](CC4SC(N)=NC45C/C(=N/NC(N)=O)CC[C@]35C)[C@@H]1CCC2=O (some centres undefined)
1.71 µM

Indicate the recorded GI50 value for this compound: O=C1C(=O)c2ccccc2C(O)=C1CCCc1ccc(C2CCCCC2)cc1
17 µM

Indicate the recorded GI50 value for this compound: COc1ccc(/C=C2\SC(=Nc3ccccc3)NC2=O)cc1
12.5 µM

====

Entries annotated with measured GI50
Tested on: SK-MEL-28 melanoma
Assay: NCI tumour cell line growth inhibition, 48 h

Specify GI50 for COC(=O)CCNc1c2ccccc2nc2cccc([N+](=O)[O-])c12 , system SK-MEL-28 melanoma.
2.9 nM

Specify GI50 for COc1ccc(/C(C#N)=C/c2cc(OC)c(OC)c(OC)c2)cc1 , system SK-MEL-28 melanoma.
27400 nM

Specify GI50 for COc1cc(C(=O)O[C@H](C(=O)NCCN(C)CCNC(=O)[C@@H](OC(=O)c2cc(OC)cc3c(C)cccc23)[C@]2(C)CO2)[C@]2(C)CO2)c2cccc(C)c2c1 , system SK-MEL-28 melanoma.
171 nM
